# method description: Cmax in rat at 3 mg/kg, po
# Format: ADME, organism-based
# Design: dose 3 mg/kg, route oral
# test context: in vivo
observed property: Cmax

Need Cmax, item COc1cc(F)ccc1-c1c(CN(C)Cc2ccccc2)[nH]c2c(NS(C)(=O)=O)cc(C(C)C)cc12
63.3 ng/mL

* * *

# method description: Tmax in rat at 3 mg/kg, po
# Assay type: ADME, organism-based
# test context: in vivo
observed property: Tmax
Report field: quantity (unit follows the number).

Requested field: Tmax. Item: COc1cc(F)ccc1-c1c(CN(C)Cc2ccccc2)[nH]c2c(NS(C)(=O)=O)cc(C(C)C)cc12
4 h
